Taken from the supplement of paper PMC9170038.

# Tested on: MS2 coat protein
# measurement_notes: apparent KD of MS2 coat protein; designed switch direction (-1 OFF switch, 1 ON switch): -1; higher = weaker reporter binding
# settings: Eterna round: R95; input ligand: microRNA oligo, concentration not stated

sequence_string	unit_annotation	apparent KD of MS2 coat protein
AAAUAAUAGAUAAAAUAAUACAUGAGGAUCACCCAUGUGCGAUGUUGAGGGUGAUACAGGCUUUUUGCUCGUCUUAU (puzzle: Sensor v3, turn-off variant 1)	nM	20.5
UUUAUGUCAGGAUAUGAGGAGUAGAACAAUAGUACUACUCCUCAGAAGGGACAUGAGGAUCACCCAUGUUCCUC [Fiskers Ex 4 Super stable 44 mod 25] (puzzle: Exclusion 4)	nM	18.5
GAAAAGGUAGGAUAUACGAAAAAAAAGGGUAGAAAAAAGACACAUGAGGAUCACCCAUGUAGAAGGACCAAAAG [salish99_ex2_r3_019] (puzzle: Exclusion 2)	nM	21.7
ACGUGAUAUCUGUCGUUGGACAUGAGGAUCACCCAUGUGAGCUUUUUGCUCGUCUUAUAACCCGGUGACAGACCUUC [Aatbebeed] (puzzle: Sensor v3, turn-off variant 1)	nM	247
UCAAGCUUUAGGCGUGUGAACAUGAGGAUCACCCAUGUAUUUUUGGUUAGGAGUUCUGUAAGGGAUGCUCGUCUUAU [JR_SWV3TOV1_Sub092] (puzzle: Sensor v3, turn-off variant 1)	nM	54.8
AAAAGGCUAGGAUAUACCAGUGGGUGUAAGAACUCAAAUUUACAUGAGGAUCACCCAUGUAGAAGGAGUAAAAU [Dilaed] (puzzle: Exclusion 2)	nM	19.5
CUAGUCCGAGGAUAUAUUAAGUGAUACAUGAGGAUCACCCAUGUUAUUUAAUGGAUGUUAAUAGAAGGCGGACUAG [Mat - Exclusion 5 - JL mod - D76] (puzzle: Exclusion 5)	nM	37.7
UGGGUUACAGGAUAUACAUGAGGAUCACCCAUGUCAUGUUUCGUGGCGGAUAGCUCGAGUAGAAGGGUGCAUCC [Diorus] (puzzle: Exclusion 3)	nM	36.6
AUCUUGUCAGGAUAUCUGACAAGUGACUUCGGUCACAGUUCAGAGAAGGUACAUGAGGAUCACCCAUGUAGAAC [Ex4-3: 39] (puzzle: Exclusion 4)	nM	17.9
AAGAAACGAGGAUAUACAGUUGAGUGAGAGAGGGAAGUGUUACAUGAGGAUCACCCAUGUAGAAGGCGUGAGAG [JR_Exclu2_Sub088] (puzzle: Exclusion 2)	nM	31.4
GGUUGGCGAGGAUAUACAUGAGGAUCACCCAUGUGAGGGAAAAAAGUGAGAACGAAAAGUAGAAGGCGCUGACG [salish99_ex3_r3_063] (puzzle: Exclusion 3)	nM	54
UUGAGGUAAGGAUAUAUUAGGAGCGAAGUUACUUGUUUUUUAUAGAAGGUACAUGAGGAUCACCCAUGUGAAUA [JR_Exclu4_Sub062] (puzzle: Exclusion 4)	nM	24.7
GUAUAUAGUGUGAGGAUAUGCUGGUCCUUGGAUCAGCAGAAGGCACAUGAGGAUCACCCAUGUAGUUAAAUAUG [Mat - Exclusion 4 - JL Mod - D21] (puzzle: Brourd's mod of Exclusion 4)	nM	26.3
AAAAGGUGAGGAUAUGAGGCGCCGGGCCGGUUGGUGCGGAUUCAGAAGGCACAUGAGGAUCACCCAUGUAAUAA [Excls4-II] (puzzle: Exclusion 4)	nM	38.7
AAUAGCAAGUAAGAUCCUAACAUGAGGAUCACCCAUGUGCUCGUCUUGUAAAGUACUAUCACGAAAGUGAUAGUACA [Sensor 3, v1 - 50] (puzzle: Sensor v3, turn-off variant 1)	nM	69.4
CCGUUAUGAGGAUAUCGCUUGAAAGACAUGAGGAUCACCCAUGUGGGCGCGUCCUCAUGGCGAGAAGGCAUUACGA [Enmaatama] (puzzle: Exclusion 5)	nM	13.1
GUAAUUAUAUAGGAUAUCGAUUUUAUUAUUUAACGAGAAGGAUGAACAUGAGGAUCACCCAUGUGGUAUCAUGG [JL-ex6-3.05] (puzzle: Exclusion 6)	nM	138
GCCAGAGGAGGAUAUCUAAUAUAUCACAUGAGGAUCACCCAUGUCCAGCGAAAGCUGGAGGGAGAAGGCCUCUGGC [Fiskers Ex 5 - 23] (puzzle: Exclusion 5)	nM	98.2
ACUAGAUGAGGAUAUGCAUGUUUUCAUGUUCUUCUAGAUUAACAUGAGGAUCACCCAUGUAGAAGGCGUCUUUU [Exclusion 2 - 31] (puzzle: Exclusion 2)	nM	22.4
UUUUAACAUGAGGAUCACCCAUGUGAGGAUAUCGAAAUUUAUAUUUAUAUUAAUAAAACGAGAAGGCACAUUUU [JMF 75] (puzzle: Exclusion 1)	nM	70.4
AGUAACCGUCACGAAAGUGAUGGUUACGCAAGUAAAUGUACAUGAGGAUCACCCAUGUCCUCAUUUGCUCGUCUUAU [Sensor 3 - 44] (puzzle: Sensor v3, turn-off variant 2)	nM	330

* * *

# System: MS2 coat protein
# measurement_notes: apparent KD of MS2 coat protein; designed switch direction (-1 OFF switch, 1 ON switch): -1; higher = weaker reporter binding
# settings: Eterna round: R95; input ligand: FMN 200 uM
Measured apparent KD of MS2 coat protein by item

sequence_string	unit_annotation	apparent KD of MS2 coat protein
UGUGCGUAUGUGAGGAUAUGCUGGUCCUUGGAUCGGCAGAAGGCACAUGAGGAUCACCCAUGUGGUGUCGUACG [salish99_Bmod_ex4_079] (puzzle: Brourd's mod of Exclusion 4)	µM	0.191
AGGUAACAUGAGGAUCACCCAUGUCAGGAUAUCAGUAAGAUUAGAAUAGAGUAGAGUAUGAGAAGGGACUAUAU [Excluse me! 20 - Jieux - Exclusion 1] (puzzle: Exclusion 1)	µM	0.0333
UUACAAUGUCGCUUAUAAGCUUUUUGCUCGUCUUAUAUUACAUGAGGAUCACCCAUGUAGAUCAUGUGGCGUGACCU [JL ViennaUCT Maridi mod 8] (puzzle: Sensor v3, turn-off variant 2)	µM	0.264
AAUACACAUGAGGAUCACCCAUGUUAGGAUAUUCGCGGGAAAGCUGUCAAAACGCCGAGGAGAAGGAACAGGAA [Excls1-X] (puzzle: Exclusion 1)	µM	0.04
GAUAGAGAGCAGGAUAUCUUGGAUAAGUGUUGUAGAGAAGGGCUCACAUGAGGAUCACCCAUGUGGUCCUAGAU [JL Dibiri mod 09] (puzzle: Exclusion 6)	µM	0.0375
AUGGACGCAGGAUAUACAUGAGGAUCACCCAUGUGAGGUUGGUAAGUAGGAAGUGAAGGUAGAAGGGCGAGAGA [JR_Exclu3_Sub097] (puzzle: Exclusion 3)	µM	0.107
ACAAGCUUUUUGCUCGAAGAGUAGAAACGUGAGAGCGAAACAUGAGGAUCACCCAUGUAAAGGCAGUAGGUGAAGAU [JR_SV3TOV2_Sub024] (puzzle: Sensor v3, turn-off variant 2)	µM	0.0398
UCGACCGGAGGAUAUUACGUAAAGUACAUGAGGAUCACCCAUGUGUGGUACCUCGAGUCGUAAGAAGGCCGAAAUA [Teisor] (puzzle: Exclusion 5)	µM	0.283
GAAAAGGUAGGAUAUACGAAAAAAAAGGGCAGAAAAAAAACACAUGAGGAUCACCCAUGUAGAAGGACCAAAAG [salish99_ex2_r3_065] (puzzle: Exclusion 2)	µM	0.0266
AGUACUAACAGCUGACUGUUAGUACUGUAGGUUUGUGUUACAUGAGGAUCACCCAUGUCCUCAUAGGCUCGUCUUGU [Mat - Sensor v3 - Turn-off var 2 - D97] (puzzle: Sensor v3, turn-off variant 2)	µM	0.291

* * *

# System: MS2 coat protein
# measurement_notes: apparent KD of MS2 coat protein; higher = weaker reporter binding
# settings: Eterna round: R107; input ligand: theophylline 2 mM
Measured apparent KD of MS2 coat protein by item
measurement_type: apparent KD of MS2 coat protein (nM)

sequence_string	measured_on	numeric_value
CCUAACCGAUCGGCCGCCACUGACCGGUACCUCUUCGAAACCCGCCACAUGAGGAUCACCCAUGUCAGGACCGGGAUUGCACAGG [Inxeus]	MS2 coat protein	17.8
GCAUGUUGGUGGUUUCUGCGAAGGCGGAAUCGAGGACCGGUACGGCCGCCACUCGGCGACAUGAGGAUCACCCAUGUGGUUAGGA [Exclusion - Tryptophan A (Freestyle 9)]	MS2 coat protein	461
CGAUAUGGGACGGCCGCCACUAUUAUGUAACAAAAUAAACAUGAGGAUCACCCAUGUACAUGGGAUAGGACCGGGUCCUAUAACG [#22 Same State - Tryptophan B]	MS2 coat protein	46.2
CGGCCCUCACCUGAGGAUCACCCAGGUGAUACCAGCCUGGAAACAGGCCCUUGGCAGCACCAGGUCAUCAAAGAUGACCAAGCCG [TheoAX 23 #SwitchBubble]	MS2 coat protein	128
GGACCAGGGAGCGAUACCAGCUUGAGUGUGCUGGCCAGGCACAUGAGGAUCACCCAUGUAGGCCCUUGGCAGCGCUCCCUGGUCC [#1 Exclusion - Theophylline B Attempt #28 (HarryS)]	MS2 coat protein	12.3
GGAUAGGACACGGCCGCCACUAGCUAGGAUACUAGCAACAUUUCCUCACUUGAGGAUCACCCAGGUAGGACCGGGUGUCCUAUCG	MS2 coat protein	1430
UAUCCACAUGAGGAUCACCCAUGUUAGGAAGGAGCGGUGGAUGCACCAGGUAGGUCGCCUAGCUGAGGACUGUCGGUGGAUUCGU [Exclusion - Arginine A (Freestyle 21)]	MS2 coat protein	131
UAACAUGAGGAUCACCCAUGUUUAGAAGAACGAGGACCGGUACGGCCGCCACUCGAAAAGUGGAAGAAAAGAGGGAUAGAAUGAU [Same State Trp A GF1]	MS2 coat protein	12.2
UGUAUGUGAUCUGAUACCAGCUUUGAUAACCUGAGGAUCACCCUGGUAAAGGCGAAAGCCAGCCCUUGGCAGCAGAUCGCAUACU	MS2 coat protein	20.7
UGGUACAUGGCGGCCGCCACUUCACGUAAAAUAAAAACUUGAGGAACACCCAAGUAAUAAGUUGGGAGGACCGGGUCAUGUACCU	MS2 coat protein	39.1
GGGUCGCGUUCGGCCGCCACUUGGAAACAUGAGGAUCACCCAUGUCAUAUGGUGGGACAUGUUGUAAGGACCGGGAACCGUCCUA [theeternabot_exclusion_MS2_Trp_B_11]	MS2 coat protein	83.4
CAAAAUUACGGAAGGAGCGCGGGUAGGCGGGUUGGAUCACAUGAGGAUCACCCAUGUAAAUCGCAGGUAGGUCGCCGUAAACGCG [Eslagele]	MS2 coat protein	76.9
AGUUCCAGGUCGGCCGCCACUGGCAUGGCCGGUCCUCGGACUUACAUGAGGAUCACCCAUGUGAACAGGACCGGGACCGCAUGGG [Exclusion Tryptophan B GF 24]	MS2 coat protein	57.2
UAUAUAGAUGGACGUCAUCUAGAUGCAGAAGGAGCGUAGGAAACUACAGGUAGGUCGCUGAGGUACAUGAGGAUCACCCAUGUAG [SSArg A #21 Slice of Pi]	MS2 coat protein	27
GCGACCCUGAGAUCCUGCGUAACGUGAACACGAGGACCGGUACGGCCGCCACUCGAGAGAACAUGAGGAUCACCCAUGUCUGAGC [e-trypA-0(N)]	MS2 coat protein	26.4
UGGUUUCGGUCAAUCACCGGUCCCUGGGAAGGAGCGGACUCAUGUCCAGGUAGGUCGCCCAGACAUGAGGAUCACCCAUGUGACA [Tiusdiin]	MS2 coat protein	142
UCUGUUUGCUUUGUUUGUUUCUUCUUUGAGCGAGGACCGGUACGGCCGCCACUCGGGUUACAUGAGGAUCACCCAUGUGGUUUCU [Interesting]	MS2 coat protein	149
GUACAUGAGGAUCACCCAUGUAUAGUUGAAGGAGCGACCGGAGGGUCAGGUAGGUCGCAGCACAUGGCGUCAACCCGUGUAUGCC [#1 Exclusion - Arginine A Attempt #25 (Inspired by Pi)]	MS2 coat protein	18.5
AGCCACUCGAGUGAUCCUCACGAGUGGCAACGAGGACCGGUACGGCCGCCACUCGAAUAAACAUGAGGAUCACCCAUGUAAUAAU [T''-M-T'-T-MS2]	MS2 coat protein	683
GCUGCCAUACGAAGGAGCGCUGUUGCAAUGAGGCGAACAUGAGGAUCACCCAUGUGGCAGCAGCAGGUAGGUCGCGUAUGGCAGC [EAB #12]	MS2 coat protein	52.7
CUACAUUUGUAGAAACCGGUCAACAAUAAUCGAGGACCGGUACGGCCGCCACUCGUAUAAUUUUAUACAUGAGGAUCACCCAUGU [Tryptophan A 3]	MS2 coat protein	16.5
ACCGCAUCCGUAUAGGAUGCGGCCCAUGAAGGAGCGUGGGAAACCACAGGUAGGUCGCAUGGACAUGAGGAUCACCCAUGUUAUU [Inception]	MS2 coat protein	62.7
ACAUGAGGAUCACCCAUGUAUGAUGUUCCUCGAGGACCGGUACGGCCGCCACUCGAACGAGUGGCGCGCGCGCGCGCGCGCGCGC [aUa]	MS2 coat protein	22.7
